Measured values drawn from PubChem BioAssay (NCI) for this set.

System: K-562 leukemia
method description: NCI-60 one-dose screen, 48 h (100 = growth as untreated, 0 = no growth, -100 = all killed)
assay conditions: 10 µM unless noted
About 83,000 compounds went through this panel and 20% of them were active in at least one assay; those are over-represented in the sample as a whole.
I'd appreciate it if you marked entries fulfilled when growth is lower than 40% and not fulfilled when it is not.

[[record]]
molecule = "O=C(COc1cccc(/C=C2/Oc3ccccc3C2=O)c1)Nc1nccs1"
category_label = "not fulfilled"

[[record]]
molecule = "COc1cc(-c2c3sc(=O)[nH]c3nc3c2c(=O)[nH]n3C(C)C)cc2c1OCO2"
category_label = "not fulfilled"

[[record]]
molecule = "O=C1c2cccnc2C(=O)c2c1c(C(=O)OCCN1CCOCC1)c1ccccn21"
category_label = "fulfilled"

[[record]]
molecule = "CCC(c1ccccc1)C(CC)c1ccc(O)c(O)c1 (stereo unspecified)"
category_label = "not fulfilled"

[[record]]
molecule = "CN1CCN(Cc2ccc(NC(=O)c3[nH]ncc3Nc3ncnc4c3CCC4)cc2)CC1"
category_label = "fulfilled"

[[record]]
molecule = "O=C1CC(c2nc3ccccc3[nH]2)CN1C1CCCCC1 (stereo unspecified)"
category_label = "not fulfilled"

[[record]]
molecule = "COc1ccc(C(=O)/C=C/c2c[n+](=O)c3ccc(F)cc3n2[O-])cc1"
category_label = "not fulfilled"

[[record]]
molecule = "OC(c1cccc(C(F)(F)F)c1)c1cnccc1NC1CCCCCC1 (stereo unspecified)"
category_label = "fulfilled"

[[record]]
molecule = "Oc1c(Cl)cc(Cl)cc1CNc1nccnn1"
category_label = "not fulfilled"

[[record]]
molecule = "N#Cc1c(N)nc(N)nc1Nc1ccc(Br)cc1"
category_label = "not fulfilled"


Q: Record COc1ccc(C2CC(=O)Nc3c2c(C)nn3-c2nc3ccccc3[nH]2)cc1 (stereo unspecified) : is its growth strictly below 40%?
Ans: fulfilled

Q: Same question, "CC[C@H](CO)Nc1nc(NCc2ccccc2)n2ncc(C(C)C)c2n1" this time
Ans: fulfilled
